System: L1210 leukemia ip in BDF1 mice, survival T/C
Assay: NCI In Vivo Anticancer Drug Screen. Data for tumor model L1210 Leukemia (intraperitoneal) in B6D2F1 (BDF1) mice
Settings: endpoint: mean survival time; dose: 400.0 mg/kg/injection; schedule: Q04DX003 (ip); vehicle: Klucel (hydroxypropylcellulose) (HPC); higher = longer survival
Method: The antitumor activity of compounds was measured in mice bearing transplantable tumors. Survival or tumor size were measured and the results are expressed as the measurement made in the treated group (T) divided by the measurement made in the vehicle treated control group (C). The tumor model used in this assay is L1210 Leukemia (intraperitoneal) in B6D2F1 (BDF1) mice
Inconclusive results and toxic doses are left out.
# T/C annotations
Metric: T/C

INSERT INTO assay_data (molecule, metric, result) VALUES
  ('COc1ccc(Cl)cc1NC(=O)CC(C)=O', 'T/C', '94 % of control'),
  ('CCOC(=O)c1cnc(SC)nc1Nc1cccc(OC)c1', 'T/C', '101 % of control'),
  ('c1ccc(Oc2ccccn2)cc1', 'T/C', '97 % of control'),
  ('CCCc1c(C)[nH]c2ccccc12', 'T/C', '105 % of control'),
  ('CC(NC(=O)OCc1ccccc1)C(=O)O (stereo unspecified)', 'T/C', '95 % of control'),
  ('Cc1ccc(S(=O)(=O)OCCS(C)(=O)=O)cc1', 'T/C', '97 % of control'),
  ('Nc1n[nH]c(C(=O)O)n1', 'T/C', '93 % of control'),
  ('COC1=CC2C3=C(C(NC=O)CCc4cc(OC)c(OC)c(OC)c43)C2C1=O (stereo unspecified)', 'T/C', '102 % of control'),
  ('CCOC(=O)c1cnc(C)nc1Nc1ccccc1Br', 'T/C', '101 % of control'),
  ('COc1ccc(N(Cc2ccccc2)c2nn[nH]n2)cc1', 'T/C', '97 % of control'),
  ('COC1=NS(=O)(=O)N=C(C)O1', 'T/C', '93 % of control'),
  ('OC(Br)C1C(c2ccccc2)N1C1CCCCC1 (stereo unspecified)', 'T/C', '93 % of control'),
  ('CC(C)(C)c1ccc(C(c2ccc(C(C)(C)C)cc2)C(Cl)Cl)cc1', 'T/C', '97 % of control'),
  ('COc1ccc(N=Cc2c(O)ccc3ccccc23)cc1', 'T/C', '102 % of control'),
  ('OCCNc1nc2ccc(Br)cc2c2ccccc12', 'T/C', '106 % of control'),
  ('O=[N+]([O-])c1cc(S(=O)(=O)Oc2ccccc2)ccc1Cl', 'T/C', '89 % of control');
